Assignment: determine reported IC50 for the given binders.
- testedOn: K417E RBD (R319-F541 with K417E) (SARS-CoV-2, UniProt P0DTC2 319-541)
- measurementDescription: lateral flow NC50, RBD-AuNP vs immobilised ACE2
Your answer is read as µg/mL, so omit the unit and give the number.

Lab note: 1035224 (antibody, V domains shown) VH: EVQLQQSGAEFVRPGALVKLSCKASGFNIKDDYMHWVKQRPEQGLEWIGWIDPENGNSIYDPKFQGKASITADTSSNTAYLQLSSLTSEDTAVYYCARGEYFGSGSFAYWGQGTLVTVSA VL: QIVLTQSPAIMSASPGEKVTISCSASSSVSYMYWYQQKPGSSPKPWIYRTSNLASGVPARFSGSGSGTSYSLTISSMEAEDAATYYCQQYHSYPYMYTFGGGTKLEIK gave IC50 of 0.38

Reported IC50 ( 1035240 (antibody, V domains shown) VH: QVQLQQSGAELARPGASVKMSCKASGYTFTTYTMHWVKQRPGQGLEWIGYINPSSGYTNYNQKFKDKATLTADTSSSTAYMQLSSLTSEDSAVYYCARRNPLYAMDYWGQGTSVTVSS VL: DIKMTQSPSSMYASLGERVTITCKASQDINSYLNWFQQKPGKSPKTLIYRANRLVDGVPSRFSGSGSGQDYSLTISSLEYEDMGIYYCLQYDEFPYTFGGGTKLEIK ) = 0.33

Record 1035762 (antibody, V domains shown) VH: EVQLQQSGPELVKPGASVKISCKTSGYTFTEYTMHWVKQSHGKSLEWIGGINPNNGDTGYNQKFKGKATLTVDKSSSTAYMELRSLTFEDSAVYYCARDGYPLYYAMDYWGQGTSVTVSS VL: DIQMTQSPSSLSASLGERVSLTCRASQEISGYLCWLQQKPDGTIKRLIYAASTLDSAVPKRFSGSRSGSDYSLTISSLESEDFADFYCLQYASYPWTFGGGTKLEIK , field IC50: 0.49

// 1035709 (antibody, V domains shown) VH: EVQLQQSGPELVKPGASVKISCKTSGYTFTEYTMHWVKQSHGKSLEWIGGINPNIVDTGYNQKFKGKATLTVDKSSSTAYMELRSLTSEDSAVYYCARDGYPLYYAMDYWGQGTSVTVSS VL: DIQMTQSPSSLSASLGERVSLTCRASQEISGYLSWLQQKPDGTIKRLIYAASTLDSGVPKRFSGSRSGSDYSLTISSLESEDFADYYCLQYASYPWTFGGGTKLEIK : IC50 value = 0.38

Documented IC50 of 1035419 (antibody, V domains shown) VH: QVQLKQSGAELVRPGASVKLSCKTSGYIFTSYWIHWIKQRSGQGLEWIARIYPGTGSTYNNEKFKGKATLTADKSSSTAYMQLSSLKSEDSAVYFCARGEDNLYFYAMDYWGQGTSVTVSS VL: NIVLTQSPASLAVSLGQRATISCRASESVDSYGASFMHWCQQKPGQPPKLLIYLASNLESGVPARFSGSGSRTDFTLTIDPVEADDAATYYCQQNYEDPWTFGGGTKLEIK : 1.51

src = patent US20230408517A1
